- Tested on: IL-17A in Human peripheral mononuclear cells
- assay.summary: Human PBMC IL-17A assay
- Format: cell-based
- setup.conditions: 72 h, EC50, antiCD3/antiCD28-coated beads, 3 days, alpha-LISA
- Experimental: This assay measures the IL-17A inhibitory potential of test compounds in Human peripheral mononuclear cells. […] The PBMC were thawed, washed and suspended in RPMI-1640 supplemented with pen/strep, glutamax and 10% bovine calf serum. […] The plate was incubated for 3 days in humidified air/CO2 (95%/5%) On day 3 the level of IL-17A in the culture supernatant is measured using alpha-LISA kit (Perkin Elmer). […] EC50 values were calculated using a 4-parameter non-linear regression curve-fitting model. […]
readout.label: EC50 (nM)
Give just the number in nM; leave the unit off.

EC50 measured on Cc1cc(CN2CCN(C(=O)OC(C)C)[C@@H](C)C2)c(C)c(Nc2nnc([C@@H](C)N)o2)c1 = 182

Note to self: EC50 recorded for Cc1cc(CN2CCN(C(=O)OC(C)C)[C@@H](C)C2)c(C)c(Nc2nnc([C@@H](N)CO)o2)c1 was 366

Measured EC50, Cc1c(CN2CCN(C(=O)OC(C)C)[C@@H](C)C2)cc(Cl)cc1Nc1nnc(C2CNC(=O)C2)o1 (stereo partly shown) : 47.2

Cc1cc(CN2CCN(C(=O)OC(C)C)[C@@H](C)C2)c(C)c(Nc2nnc([C@@H]3CCOC3)o2)c1 has a reported EC50 of 60.5

----------
Assign EC50 to each entry below.
- Tested on: IL-17A levels in human peripheral blood
- assay.summary: tissue or blood
- Format: cell-based
- setup.conditions: 72 h, read-out: Human Whole blood IL-17A (nM)
Structures can show the parent of a compound that is named as a salt.
In your response, put the unit directly after the numeric value.

Considering Cc1c(CN2CCN(C(=O)c3ccccc3)[C@@H](C)C2)cc(Cl)cc1Nc1nnc(C2CCCO2)o1 (stereo partly drawn) , its EC50 with IL-17A levels in human peripheral blood was recorded as 428 nM

// returns EC50 for COCc1nnc(Nc2cc(Cl)cc(CN3CCN(C(=O)C4CCCC4)[C@@H](C)C3)c2C)o1 with IL-17A levels in human peripheral blood; value = 112 nM

Form field EC50 for item Cc1c(CN2CCN(C(=O)C3CCC3)[C@@H](C)C2)cc(C(F)F)cc1Nc1nnc([C@H](C)O)o1 on IL-17A levels in human peripheral blood: 457 nM

IL-17A levels in human peripheral blood assay, molecule COCc1nnc(Nc2cc(Cl)cc(CN3CCN(C(=O)c4ccccc4F)[C@@H](C)C3)c2C)o1 , recorded EC50 = 254 nM

Test item Cc1c(CN2CCN(C(=O)c3ccccc3)[C@@H](C)C2)cc(Cl)cc1Nc1nnc(C2CC2)o1 ; IL-17A levels in human peripheral blood; reported EC50 was 385 nM

Reading of EC50 for Cc1cc(CN2CCN(C(=O)OC(C)C)[C@@H](C)C2)c(C)c(Nc2nnc([C@@H]3COCCN3)o2)c1 [Example 55, dihydrochloride] with IL-17A levels in human peripheral blood: 36.8 nM

Hey, IL-17A levels in human peripheral blood data for Cc1cc(CN2CCN(C(=O)OC(C)C)[C@@H](C)C2)c(C)c(Nc2nnc(C[C@@H](O)C(F)(F)F)o2)c1 : EC50 came out at 96.7 nM

Lab note: molecule Cc1cc(CN2CCN(C(=O)OC(C)C)[C@@H](C)C2)c(C)c(Nc2nnc([C@@H]3CNC(=O)C3)o2)c1 tested on IL-17A levels in human peripheral blood; recorded EC50 was 240 nM

Hey, IL-17A levels in human peripheral blood data for Cc1cc(CN2CCN(C(=O)C3CCCC3)[C@@H](C)C2)c(C)c(Nc2nnc([C@@H](C)O)o2)c1 : EC50 came out at 112 nM

Tested system IL-17A levels in human peripheral blood; EC50 recorded for CCC(F)(F)C(=O)N1CCN(Cc2cc(Cl)cc(Nc3nnc(COC)o3)c2C)C[C@@H]1C was 497 nM

Sample Cc1cc(CN2CCN(C(=O)OC(C)(C)C)[C@@H](C)C2)c(C)c(Nc2nnc([C@H]3C[C@@H](O)C3)o2)c1 , system: IL-17A levels in human peripheral blood. Its EC50 is 422 nM

Field EC50 (IL-17A levels in human peripheral blood), entry Cc1cc(CN2CCN(C(=O)OC(C)C)[C@@H](C)C2)c(C)c(Nc2nnc([C@@H](N)[C@@H](C)O)o2)c1 : 373 nM

Noted EC50 for Cc1cc(CN2CCN(C(=O)C3CCC3)[C@@H](C)C2)c(C)c(Nc2nnc(C)o2)c1 , tested on IL-17A levels in human peripheral blood: 372 nM

Record Cc1c(CN2CCN(C(=O)c3ccccc3)[C@@H](C)C2)cc(Cl)cc1Nc1nnc(CCC#N)o1 / IL-17A levels in human peripheral blood, EC50 recorded as 219 nM

IL-17A levels in human peripheral blood assay, molecule Cc1cc(CN2CCN(C(=O)OC(C)(C)C)[C@@H](C)C2)c(C)c(Nc2nnc(-c3ccnn3C)o2)c1 , recorded EC50 = 231 nM

Lab note: molecule Cc1cc(CN2CCN(C(=O)C3CC3)[C@@H](C)C2)c(C)c(Nc2nnc(CC#N)o2)c1 tested on IL-17A levels in human peripheral blood; recorded EC50 was 206 nM

Tested system IL-17A levels in human peripheral blood; EC50 recorded for Cc1c(CN2CCN(C(=O)OC(C)C)[C@@H](C)C2)cc(Cl)cc1Nc1nnc(C2(O)CC2)o1 was 330 nM

Case Cc1c(CN2CCN(C(=O)OC(C)C)[C@@H](C)C2)cc(Cl)cc1Nc1nnc(C2COC2)o1 , IL-17A levels in human peripheral blood, EC50 recorded as 365 nM

----------
Can you tell me EC50 for the items I'm about to list?
- Tested on: IL-17A in Human peripheral mononuclear cells
- assay.summary: Human PBMC IL-17A assay
- Assay type: cell-based
- setup.conditions: 72 h, EC50, antiCD3/antiCD28-coated beads, 3 days, alpha-LISA
Please give a number only; it is taken to be in µM.

Quick note, EC50 for Cc1cc(CN2CCN(C(=O)OC(C)C)[C@@H](C)C2)c(C)c(Nc2nnc(C[C@H](C)O)o2)c1 landed at 0.106

Sample Cc1c(CN2CCN(C(=O)C3CCCC3)[C@@H](C)C2)cc(Cl)cc1Nc1nnc(CC#N)o1 ; EC50 observed: 0.0698

// EC50 lookup, compound = Cc1c(CN2CCN(C(=O)OC(C)C)[C@@H](C)C2)cc(Cl)cc1Nc1nnc(C2(CO)CC2)o1 , result: 0.103

Lab note: Cc1c(CN2CCN(C(=O)OC(C)C)[C@@H](C)C2)cc(Cl)cc1Nc1nnc(C(O)C(F)(F)F)o1 (stereo partly drawn) gave EC50 of 0.0632

Quick note, EC50 for Cc1c(CN2CCN(C(=O)c3ccccc3)[C@@H](C)C2)cc(Cl)cc1Nc1nnc(C2(O)CC2)o1 landed at 0.234

The compound Cc1c(CN2CCN(C(=O)c3ccccc3)[C@@H](C)C2)cc(Cl)cc1Nc1nnc(CCC#N)o1 showed EC50 equal to 0.0498

----------
I'd appreciate it if you could supply pEC50 values for the items below.
- System: IL-17A in Human peripheral mononuclear cells
- assay.summary: Human PBMC IL-17A assay
- Assay type: cell-based
- setup.conditions: 72 h, EC50, antiCD3/antiCD28-coated beads, 3 days, alpha-LISA
Structures can show the parent of a compound that is named as a salt.
A value of pEC50 is the negative decimal logarithm of a concentration given in moles per litre.

The molecule identified as Cc1cc(CN2CCN(C(=O)OC(C)(C)C)[C@@H](C)C2)c(C)c(Nc2nnc([C@H]3C[C@@H](O)C3)o2)c1 registered its pEC50 at 6.93

get_value(item= Cc1cc(CN2CCN(C(=O)O[C@H](C)C(F)(F)F)[C@@H](C)C2)c(C)c(Nc2nnc([C@H]3NCC[C@H]3O)o2)c1 , readout=pEC50) returns 7.15

Measured pEC50 of Cc1c(CN2CCN(C(=O)OC(C)C)[C@@H](C)C2)cc(Cl)cc1Nc1nnc([C@H]2C[C@H](O)C2)o1 : 6.88

Lab book: pEC50 of Cc1cc(CN2CCN(C(=O)CC3CCC3)[C@@H](C)C2)c(C)c(Nc2nnc([C@@H](C)O)o2)c1 noted as 7.04

Lookup result for Cc1cc(CN2CCN(C(=O)OC(C)C)[C@@H](C)C2)c(C)c(Nc2nnc([C@@H]3COCCN3)o2)c1 [Example 55, dihydrochloride] ; measured pEC50: 7.21

Record Cc1cc(CN2CCN(C(=O)OC(C)C)[C@@H](C)C2)c(C)c(Nc2nnc(C[C@@H](C)O)o2)c1 . Reported pEC50: 6.97

Briefly, pEC50 measured for Cc1c(CN2CCN(C(=O)OC(C)C)[C@@H](C)C2)cc(C(F)F)cc1Nc1nnc([C@@H](C)O)o1 : 7.06

Quick note, pEC50 for Cc1cc(CN2CCN(C(=O)OC(C)C)[C@@H](C)C2)c(C)c(Nc2nnc(-c3ccnn3C)o2)c1 landed at 6.91

Lab book: pEC50 of Cc1cc(CN2CCN(C(=O)OC(C)(C)C)[C@@H](C)C2)c(C)c(Nc2nnc([C@H](C)O)o2)c1 noted as 6.97

The molecule listed as Cc1cc(CN2CCN(C(=O)OC(C)C)[C@@H](C)C2)c(C)c(Nc2nnc(C)o2)c1 shows pEC50 equal to 6.97

Just so you know, measured pEC50 for Cc1c(CN2CCN(C(=O)c3ccccc3)[C@@H](C)C2)cc(Cl)cc1Nc1nnc(C2CC2)o1 came out at 7.16

For record Cc1cc(CN2CCN(C(=O)OC(C)C)[C@@H](C)C2)c(C)c(Nc2nnc(C3CNC(=O)C3)o2)c1 (stereo partly shown) the listed pEC50 is 6.67

// recorded pEC50 for Cc1cc(CN2CCN(C(=O)C3CCC(F)(F)C3)[C@@H](C)C2)c(C)c(Nc2nnc(CC#N)o2)c1 (stereo partly shown) : 6.64

Form field pEC50, entry Cc1c(CN2CCN(C(=O)c3ccccc3)[C@@H](C)C2)cc(Cl)cc1Nc1nnc(C2CCOC2)o1 (stereo partly shown) : 7.29

So, Cc1cc(CN2CCN(C(=O)OCC(F)(F)F)[C@@H](C)C2)c(C)c(Nc2nnc([C@H]3C[C@@H](O)C3)o2)c1 ? Its pEC50 was 7.11

Entry COCc1nnc(Nc2cc(Cl)cc(CN3CCN(C(=O)C4CCCC4)[C@@H](C)C3)c2C)o1 — recorded pEC50 = 7.31

response.value for Cc1cc(CN2CCN(C(=O)OC(C)C)[C@@H](C)C2)c(C)c(Nc2nnc(-c3nonc3C)o2)c1 (field: pEC50) = 7.55

pEC50 reading for CCOC(=O)N1CCN(Cc2cc(C)cc(Nc3nnc([C@@H](C)O)o3)c2C)C[C@@H]1C : 6.65

The molecule identified as COCc1nnc(Nc2cc(Cl)cc(CN3CCN(C(=O)c4ccccc4F)[C@@H](C)C3)c2C)o1 registered its pEC50 at 7.00
